So I've got a bunch of compounds here, and I need their EC50 values.
# Test system: mitochondrial calcium uptake (mitochondrial calcium uniporter)
# assay.method.text: 45Ca2+ uptake in isolated liver mitochondria
# Type: biochemical, rat
# details: isolated mitochondria, 30 min, 37° C., pyruvate and malate; read-out: EC50 of inhibition of mitochondrial calcium uptake

Note down EC50 recorded for COc1ccc2c(c1)CCC1C2CCC2(C)C(NCCCCCCN3C(=O)C=CC3=O)CCC12 (centres unmarked) [U-73122] 2000 to 3000 nM

Note down EC50 recorded for NCCOB(c1ccccc1)c1ccccc1 [2-APB, 2-aminoethoxydiphenyl borate] 2000 to 3000 nM
